Assayed target: 85/88 kDa calcium-independent phospholipase A2 (Homo sapiens) (UniProt O60733)
Sequence (O60733 whole entry): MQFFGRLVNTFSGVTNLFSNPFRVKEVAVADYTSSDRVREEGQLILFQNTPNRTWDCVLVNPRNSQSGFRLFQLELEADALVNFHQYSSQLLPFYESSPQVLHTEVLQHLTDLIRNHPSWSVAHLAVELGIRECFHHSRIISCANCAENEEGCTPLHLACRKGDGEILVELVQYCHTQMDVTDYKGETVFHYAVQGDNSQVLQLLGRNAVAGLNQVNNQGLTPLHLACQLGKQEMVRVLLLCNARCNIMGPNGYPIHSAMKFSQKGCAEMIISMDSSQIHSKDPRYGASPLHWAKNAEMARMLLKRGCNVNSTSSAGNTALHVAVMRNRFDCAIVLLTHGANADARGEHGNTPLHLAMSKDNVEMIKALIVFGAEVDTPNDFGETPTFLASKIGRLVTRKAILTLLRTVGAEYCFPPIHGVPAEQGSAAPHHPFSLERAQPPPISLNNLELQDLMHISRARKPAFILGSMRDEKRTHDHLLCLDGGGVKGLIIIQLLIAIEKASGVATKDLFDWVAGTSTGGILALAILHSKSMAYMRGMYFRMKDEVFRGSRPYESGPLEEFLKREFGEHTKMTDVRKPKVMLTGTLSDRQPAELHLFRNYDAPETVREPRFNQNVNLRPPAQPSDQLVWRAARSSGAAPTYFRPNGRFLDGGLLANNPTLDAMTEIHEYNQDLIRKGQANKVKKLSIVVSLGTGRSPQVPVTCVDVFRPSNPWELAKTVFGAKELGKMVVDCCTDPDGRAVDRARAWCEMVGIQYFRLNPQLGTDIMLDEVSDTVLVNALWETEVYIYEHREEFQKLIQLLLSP
Protocol: Inhibition of human recombinant G6A iPLA2 using arachidonyl-1-14C PAPC and PAPC incubated for 30 mins by HPLC-MS analysis based radioactivity-based group specific mixed micelle assay
So basically, if XI50 (mole fraction) comes in under 0.0003 it's 1, and if it's 0.0003 or more it's -1.

Answered examples (6):
>>> category_label("CCC[C@H]1OC(=O)[C@@H]1CCCc1ccc(OC)cc1 (racemic)")
1
>>> category_label("COc1ccc(CCSCC(=O)c2noc(C(C)(C)C)n2)cc1")
-1
>>> category_label("CCC[C@H]1OC(=O)[C@@H]1CCCCc1ccccc1 (racemic)")
1
>>> category_label("CCC[C@@H]1OC(=O)[C@@H]1CCCCc1ccccc1 (racemic)")
-1
>>> category_label("CCC[C@H]1OC(=O)[C@@H]1CCCc1ccccc1 (racemic)")
1
>>> category_label("CCC[C@@H]1OC(=O)[C@@H]1CCCCc1ccc2ccccc2c1 (racemic)")
-1

is_below(XI50 (mole fraction), 0.0003) for CCC[C@H]1OC(=O)[C@@H]1CCCCc1ccc2ccccc2c1 (racemic) ?
1

Please let me know if CCC[C@@H]1OC(=O)[C@@H]1CCCc1ccc(OC)cc1 (racemic) shows XI50 (mole fraction) below 0.0003.
-1
